log2 fold change of degron read counts by entry:
Target: T1, CRBN, Q96SW2;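 further: pooled lentiviral library of zinc finger degron-EGFP fusions in mCherry-positive Jurkat cells, FACS-sorted after compound exposure, with degron abundance counted by next-generation sequencing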
T1 chain: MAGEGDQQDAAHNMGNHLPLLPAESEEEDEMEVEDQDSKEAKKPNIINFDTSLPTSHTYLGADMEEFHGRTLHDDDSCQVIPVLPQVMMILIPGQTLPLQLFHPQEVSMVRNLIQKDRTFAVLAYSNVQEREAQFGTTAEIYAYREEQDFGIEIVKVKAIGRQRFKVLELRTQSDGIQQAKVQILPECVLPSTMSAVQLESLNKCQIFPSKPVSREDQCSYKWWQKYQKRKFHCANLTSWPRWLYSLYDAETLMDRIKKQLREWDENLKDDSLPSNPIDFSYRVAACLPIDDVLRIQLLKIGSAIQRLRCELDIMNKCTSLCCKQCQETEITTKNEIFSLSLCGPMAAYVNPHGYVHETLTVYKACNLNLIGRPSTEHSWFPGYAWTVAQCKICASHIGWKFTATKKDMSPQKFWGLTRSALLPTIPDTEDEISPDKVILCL
Assay: log2 fold change of degron read counts, EGFP-low vs EGFP+ sorted cells (limma voom), compound-induced degradation; higher = more compound-induced degradation of the degron-EGFP fusion; degrons are variants of IKZF1/3 zinc finger 2; compound dose not given here
Conditions: Jurkat; 18 h; compound: compound 33 (diphenyl IMiD analogue)
Whole data set: some 8,300 sequences, median “log2 fold change of degron read counts, EGFP-low vs EGFP+ sorted cells (limma voom), compound-induced degradation” near -1.1, cut for the highest 2% near 3.2. Only a selection was taken, and the highest values are over-represented in it overall.
quantity kind: log2 fold change of degron read counts

{"sequence code": "FGCEVCGADFTQKGNLLRHIKL [46F_47G_49E_50V_52G_53A_54D_55F_67L_, Q9UKT9]", "quantity kind": "log2 fold change of degron read counts", "quantitative result": -0.906}
{"sequence code": "FYCNICGAQFTQKGNLLRHIKL [46F_47Y_49N_50I_52G_53A_54Q_55F_67L_, Q9UKT9]", "quantity kind": "log2 fold change of degron read counts", "quantitative result": 1.75}
{"sequence code": "FQCNICGAQFTQKGNLLRHIKL [46F_47Q_49N_50I_52G_53A_54Q_55F_67L_, Q9UKT9]", "quantity kind": "log2 fold change of degron read counts", "quantitative result": 1.62}
{"sequence code": "FGCEICGASFTQKGNLLRHIKL [46F_47G_49E_50I_52G_53A_54S_55F_67L_, Q9UKT9]", "quantity kind": "log2 fold change of degron read counts", "quantitative result": 1.77}
{"sequence code": "LVCPICGFRCTQKGNLLRHIKL [46L_47V_49P_50I_52G_53F_54R_55C_67L_, Q9UKT9]", "quantity kind": "log2 fold change of degron read counts", "quantitative result": 1.42}
{"sequence code": "FACEVCGADFTQKGNLLRHIKL [46F_47A_49E_50V_52G_53A_54D_55F_67L_, Q9UKT9]", "quantity kind": "log2 fold change of degron read counts", "quantitative result": -1.53}
{"sequence code": "FECNICGAAFTQKGNLLRHIKL [46F_47E_49N_50I_52G_53A_54A_55F_67L_, Q9UKT9]", "quantity kind": "log2 fold change of degron read counts", "quantitative result": 1.05}
{"sequence code": "LQCNQCGFNCTQKGNLLRHIKL [46L_47Q_49N_50Q_52G_53F_54N_55C_67L_, Q9UKT9]", "quantity kind": "log2 fold change of degron read counts", "quantitative result": -2.51}
{"sequence code": "LLCPICGFRCTQKGNLLRHIKL [46L_47L_49P_50I_52G_53F_54R_55C_67L_, Q9UKT9]", "quantity kind": "log2 fold change of degron read counts", "quantitative result": 0.856}
{"sequence code": "FFCEICGHIFTQKGNLLRHIKL [46F_47F_49E_50I_52G_53H_54I_55F_67L_, Q9UKT9]", "quantity kind": "log2 fold change of degron read counts", "quantitative result": -0.957}
{"sequence code": "FQCEICGASFTQKGNLLRHIKL [46F_47Q_49E_50I_52G_53A_54S_55F_67L_, Q9UKT9]", "quantity kind": "log2 fold change of degron read counts", "quantitative result": 2.23}
{"sequence code": "FQCNICGAAFTQKGNLLRHIKL [46F_47Q_49N_50I_52G_53A_54A_55F_67L_, Q9UKT9]", "quantity kind": "log2 fold change of degron read counts", "quantitative result": 1.53}
{"sequence code": "FYCNICGAAFTQKGNLLRHIKL [46F_47Y_49N_50I_52G_53A_54A_55F_67L_, Q9UKT9]", "quantity kind": "log2 fold change of degron read counts", "quantitative result": 1.81}
{"sequence code": "FWCEICGHWFTQKGNLLRHIKL [46F_47W_49E_50I_52G_53H_54W_55F_67L_, Q9UKT9]", "quantity kind": "log2 fold change of degron read counts", "quantitative result": -1.42}
{"sequence code": "LRCPICGFRCTQKGNLLRHIKL [46L_47R_49P_50I_52G_53F_54R_55C_67L_, Q9UKT9]", "quantity kind": "log2 fold change of degron read counts", "quantitative result": 0.655}
{"sequence code": "LTCPICGFRCTQKGNLLRHIKL [46L_47T_49P_50I_52G_53F_54R_55C_67L_, Q9UKT9]", "quantity kind": "log2 fold change of degron read counts", "quantitative result": 1.91}
{"sequence code": "FLCEVCGARFTQKGNLLRHIKL [46F_47L_49E_50V_52G_53A_54R_55F_67L_, Q9UKT9]", "quantity kind": "log2 fold change of degron read counts", "quantitative result": -0.123}
{"sequence code": "FMCEVCGARFTQKGNLLRHIKL [46F_47M_49E_50V_52G_53A_54R_55F_67L_, Q9UKT9]", "quantity kind": "log2 fold change of degron read counts", "quantitative result": 1.48}
{"sequence code": "FRCNICGAAFTQKGNLLRHIKL [46F_47R_49N_50I_52G_53A_54A_55F_67L_, Q9UKT9]", "quantity kind": "log2 fold change of degron read counts", "quantitative result": 1.96}
{"sequence code": "FKCPICGHRFTQKGNLLRHIKL [46F_47K_49P_50I_52G_53H_54R_55F_67L_, Q9UKT9]", "quantity kind": "log2 fold change of degron read counts", "quantitative result": -3.36}
{"sequence code": "FWCNICGAQFTQKGNLLRHIKL [46F_47W_49N_50I_52G_53A_54Q_55F_67L_, Q9UKT9]", "quantity kind": "log2 fold change of degron read counts", "quantitative result": 1.86}
{"sequence code": "LQCPICGFRCTQKGNLLRHIKL [46L_47Q_49P_50I_52G_53F_54R_55C_67L_, Q9UKT9]", "quantity kind": "log2 fold change of degron read counts", "quantitative result": 0.782}
{"sequence code": "FVCEVCGARFTQKGNLLRHIKL [46F_47V_49E_50V_52G_53A_54R_55F_67L_, Q9UKT9]", "quantity kind": "log2 fold change of degron read counts", "quantitative result": 0.984}
{"sequence code": "LYCPICGFRCTQKGNLLRHIKL [46L_47Y_49P_50I_52G_53F_54R_55C_67L_, Q9UKT9]", "quantity kind": "log2 fold change of degron read counts", "quantitative result": 1.5}
{"sequence code": "LECPICGFRCTQKGNLLRHIKL [46L_47E_49P_50I_52G_53F_54R_55C_67L_, Q9UKT9]", "quantity kind": "log2 fold change of degron read counts", "quantitative result": 2.73}
{"sequence code": "FKCEVCGARFTQKGNLLRHIKL [46F_47K_49E_50V_52G_53A_54R_55F_67L_, Q9UKT9]", "quantity kind": "log2 fold change of degron read counts", "quantitative result": -3.44}
{"sequence code": "FWCNICGAAFTQKGNLLRHIKL [46F_47W_49N_50I_52G_53A_54A_55F_67L_, Q9UKT9]", "quantity kind": "log2 fold change of degron read counts", "quantitative result": 1.66}
{"sequence code": "FNCEVCGARFTQKGNLLRHIKL [46F_47N_49E_50V_52G_53A_54R_55F_67L_, Q9UKT9]", "quantity kind": "log2 fold change of degron read counts", "quantitative result": -0.805}
{"sequence code": "LTCPICGFICTQKGNLLRHIKL [46L_47T_49P_50I_52G_53F_54I_55C_67L_, Q9UKT9]", "quantity kind": "log2 fold change of degron read counts", "quantitative result": 1.67}
